# Test system: ATP;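 further: ATP exposure 15 min at 22 °C before imaging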
# PROTOCOL_SUMMARY: switch fluorescence ratio, 500 uM ATP over buffer (Cy3 cluster intensity, sum of 5 cycles each) (fold (ratio)); higher = stronger signal-on switching upon ATP binding; sequences stand for … in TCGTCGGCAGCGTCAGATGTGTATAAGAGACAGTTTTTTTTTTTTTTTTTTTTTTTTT…TC
# TEST_CONTEXT: aptamer strand: ATP DNA aptamer (quencher-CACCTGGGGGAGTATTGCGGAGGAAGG + anchor), 100 nM annealed; ATP concentration: 500 uM
OBSERVATION_TYPE: switch fluorescence ratio
// no unit, no text: just the number

For the sequence TAATTGGATG , what switch fluorescence ratio is on record?
0.992

Value lookup for switch fluorescence ratio; key = AAAGATGTCA
1

Data request, read-out switch fluorescence ratio, for AATAGGGGCT
1.02

Name the reported switch fluorescence ratio value associated with the sequence CGGGTCGGGG
0.998

# input sequence: TGTGAGTTAG ; wanted: its switch fluorescence ratio
1

Others:
Please give the measured switch fluorescence ratio for this sequence: GTTAGAGTCA
1.01

###

# Test system: ATP;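 further: ATP exposure 15 min at 22 °C before imaging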
# PROTOCOL_SUMMARY: switch fluorescence ratio, 500 uM ATP over buffer (Cy3 cluster intensity, sum of 5 cycles each) (fold (ratio)); higher = stronger signal-on switching upon ATP binding; sequences stand for … in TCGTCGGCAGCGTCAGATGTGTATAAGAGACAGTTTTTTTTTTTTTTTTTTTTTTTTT…TC
# TEST_CONTEXT: aptamer strand: ATP DNA aptamer (quencher-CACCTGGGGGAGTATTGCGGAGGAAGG + anchor), 100 nM annealed; ATP concentration: 500 uM
OBSERVATION_TYPE: switch fluorescence ratio
I only need the number, thanks.

See these solved cases before continuing.
For the sequence GAGAGGGCAG , what switch fluorescence ratio is on record?
0.987

Need switch fluorescence ratio of TTTTAAGCTA , thanks.
1.12

New cases:
Find the recorded switch fluorescence ratio belonging to GGACTTATTT and report it.
0.986

###

# Test system: ATP;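 further: ATP exposure 15 min at 22 °C before imaging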
# PROTOCOL_SUMMARY: switch fluorescence ratio, 500 uM ATP over buffer (Cy3 cluster intensity, sum of 5 cycles each) (fold (ratio)); higher = stronger signal-on switching upon ATP binding; sequences stand for … in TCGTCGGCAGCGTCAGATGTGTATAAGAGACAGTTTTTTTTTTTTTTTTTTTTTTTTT…TC
# TEST_CONTEXT: aptamer strand: ATP DNA aptamer (quencher-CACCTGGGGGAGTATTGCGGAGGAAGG + anchor), 100 nM annealed; ATP concentration: 500 uM
Criterion: switch fluorescence ratio meeting or surpassing 1. Met: rule met. Not met: rule not met.

# check: switch fluorescence ratio of GAGAGCCGTC is greater than or equal to 1
rule met

Quick check: does AGGGGAGGTG have switch fluorescence ratio greater than or equal to 1?
rule met

Textbook exercise: given the entry TTTAACGTCA , state whether its switch fluorescence ratio is greater than or equal to 1.
rule met

Can CGAAGTTATG be said to have switch fluorescence ratio at or above 1?
rule met

# check: switch fluorescence ratio of GGGGACGTGG is greater than or equal to 1
rule not met

Answer whether switch fluorescence ratio of CCGAAAATAG is greater than or equal to 1.
rule met

Hi team, for ACGTGTGGGG , is the recorded switch fluorescence ratio at or above 1?
rule met

Given CCTGGGGGTC , state whether its switch fluorescence ratio is at least 1.
rule met

Next:
Item CTGACGGTAG with switch fluorescence ratio of 1 or above?
rule met

Entry ATTACGCCA : is its switch fluorescence ratio no less than 1?
rule met

// inclusive: switch fluorescence ratio at least 1? input: AACCTTGGGG
rule met

Is it the case that TTTGAAGGTG has switch fluorescence ratio reaching or exceeding 1?
rule met

Entry TGGACAATGG : is its switch fluorescence ratio no less than 1?
rule met

###

Parameter: switch fluorescence ratio. Scope: all listed entries.
# System: ATP;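 further: ATP exposure 15 min at 22 °C before imaging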
# PROTOCOL_SUMMARY: switch fluorescence ratio, 500 uM ATP over buffer (Cy3 cluster intensity, sum of 5 cycles each) (fold (ratio)); higher = stronger signal-on switching upon ATP binding; sequences stand for … in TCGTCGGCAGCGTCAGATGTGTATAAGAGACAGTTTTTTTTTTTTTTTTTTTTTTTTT…TC
# TEST_CONTEXT: aptamer strand: ATP DNA aptamer (quencher-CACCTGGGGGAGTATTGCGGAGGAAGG + anchor), 100 nM annealed; ATP concentration: 500 uM
Please reply with the number alone, leaving off any unit.

Please give the measured switch fluorescence ratio for this sequence: TTCGCGGGCT
0.996

Field request: switch fluorescence ratio | item: AAAATTCAGG
1.02

Returns the measured switch fluorescence ratio for the input sequence. Input: CCAGGGGGAT
1.97

Entry under review: TTGCTTCTAG . Reported switch fluorescence ratio?
0.979

Any idea what switch fluorescence ratio was measured for CCGGGCTTAG ?
1.28

Which switch fluorescence ratio value belongs to AGCTAGGGTC ?
1.05

What value of measured switch fluorescence ratio is listed for CCACGCTCGC ?
2.33

May I ask what switch fluorescence ratio has been recorded for CGATAACTGG ?
1.05

Name the reported switch fluorescence ratio value associated with the sequence ATTCAGCCGC
1.62

Which value of switch fluorescence ratio has been reported for TCTGGGAAAG in the records?
1

Continuing:
Sample GCGTAGGGGG — what was its switch fluorescence ratio?
0.95

Please report the recorded switch fluorescence ratio for ACCGGGCTGC .
1.06

Which value of switch fluorescence ratio has been reported for CGCTGGCCGG in the records?
0.972

Query (sequence): CGGGGGTCCG ; field requested: switch fluorescence ratio
0.926

Looking for the measured switch fluorescence ratio of AGGCGTAGCT , can you help?
1.01

For the sequence shown here, CATTAGCTGG , give the reported switch fluorescence ratio.
1.03

Requested field: switch fluorescence ratio. Item: AAGGGCTTAT
0.981

Value lookup for switch fluorescence ratio; key = GTTCTATATT
0.986

# switch fluorescence ratio lookup, item TTAGGGACAG
0.987

What measured switch fluorescence ratio goes with CAACCGGCCA ?
1.11

Could you tell me which switch fluorescence ratio is on file for TTTGCAAAGG ?
1.01

# lookup: switch fluorescence ratio of GGAAATTTGG
0.993

For the sequence CTTCTAGGGG , what switch fluorescence ratio is on record?
1.05

Record request: switch fluorescence ratio value, item TTTCTGGTTG
1.02

###

# System: ATP;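 further: ATP exposure 15 min at 22 °C before imaging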
# PROTOCOL_SUMMARY: switch fluorescence ratio, 500 uM ATP over buffer (Cy3 cluster intensity, sum of 5 cycles each) (fold (ratio)); higher = stronger signal-on switching upon ATP binding; sequences stand for … in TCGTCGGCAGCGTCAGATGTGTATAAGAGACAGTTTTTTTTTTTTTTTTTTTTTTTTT…TC
# TEST_CONTEXT: aptamer strand: ATP DNA aptamer (quencher-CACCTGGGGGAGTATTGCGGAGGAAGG + anchor), 100 nM annealed; ATP concentration: 500 uM
OBSERVATION_TYPE: switch fluorescence ratio
Response field accepts a number only; no unit should be typed.

Example entries and their recorded answers appear below.
Given the sequence ACAGCGGACG , what is its reported switch fluorescence ratio?
1.02

Given TATCGGTATT , state its recorded switch fluorescence ratio.
1

Give the measured switch fluorescence ratio of CGGGGCGGTG .
1.02

I'd like to know its switch fluorescence ratio. The sequence in question is TCGGGGGATA
0.98

Any idea what switch fluorescence ratio was measured for AAGCCGTGTC ?
1.01

Endpoint output: switch fluorescence ratio of TGTTAGTTGG . Value?
1

Others:
# lookup: switch fluorescence ratio of AGAAGAGTTT
0.95

Would you kindly share the measured switch fluorescence ratio for AAGGGCGCTG ?
1.01

State the recorded switch fluorescence ratio for this entry: TTTACGAGTA
1.01

Any idea what its switch fluorescence ratio is? The sequence is CAAATAGGCT
0.984

May I ask what switch fluorescence ratio has been recorded for TTATGGTTGG ?
0.995

Give its switch fluorescence ratio value. Item: GGTTGGGCTC
1

Which value of switch fluorescence ratio has been reported for GGGTGGACAC in the records?
0.947

// returns reported switch fluorescence ratio for input AGATACGAGG
1.03

Param item = GTGGTTGGGG ; retrieve measured switch fluorescence ratio.
1.01

switch fluorescence ratio for AATAAATGAT ?
1.01

Using the record for CGGGTCCGTA , report its switch fluorescence ratio.
0.975

I would be grateful if you could share the reported switch fluorescence ratio for AAGGTTTGCG .
1.01

Name the recorded switch fluorescence ratio for ACCGATTGTT .
1.02

I have this sequence here, TTTGTTTCAT , and I need its recorded switch fluorescence ratio.
1.04

# input sequence: AATAAAATGG ; wanted: its switch fluorescence ratio
0.998

I am curious: what switch fluorescence ratio value has been reported for TGGGCAGATA ?
1.08

# query: switch fluorescence ratio of entry TGACGATAGG
0.995

Which switch fluorescence ratio is listed for GTTGGGAAAA ?
1.01

Entry TGCATAGGGA has what switch fluorescence ratio?
1.01

# query: switch fluorescence ratio of entry ACGAGGTAGA
1.02

# lookup: switch fluorescence ratio of ATGTGGAAGT
0.97
